# target-desc: Transient receptor potential cation channel subfamily V member 1 (Homo sapiens)
# method: Agonist activity at human recombinant TRPV1 expressed in HEK293 cells assessed as increase in intracellular calcium level
Exercise: for every item that follows, state its recorded pEC50.
Answers are plain numbers, as −log10 of the molar value.

CCCCCCCCCCCCCCCC(=O)N[C@@H]1C[C@H]1O (racemic) = 7.40
CCCCC/C=C\C/C=C\C/C=C\C/C=C\CCCC(=O)N[C@H]1C[C@@H]1O = 7.33
CCCCCCCCCCCCCCCC(=O)N[C@@H]1C[C@@H]1O (racemic) = 4.58
CCCCCCC(C)(C)c1ccc([C@@H]2C[C@H](O)CC[C@H]2CCCO)c(O)c1 = 8.00

Reported pEC50 for CCCCCCCC/C=C\CCCCCCCC(=O)NCCO [OLEOYLETHANOLAMIDE] was 5.44

====

# target-desc: Transient receptor potential cation channel subfamily V member 1 (Homo sapiens, UniProt Q8NER1)
# Sequence (Q8NER1 whole entry): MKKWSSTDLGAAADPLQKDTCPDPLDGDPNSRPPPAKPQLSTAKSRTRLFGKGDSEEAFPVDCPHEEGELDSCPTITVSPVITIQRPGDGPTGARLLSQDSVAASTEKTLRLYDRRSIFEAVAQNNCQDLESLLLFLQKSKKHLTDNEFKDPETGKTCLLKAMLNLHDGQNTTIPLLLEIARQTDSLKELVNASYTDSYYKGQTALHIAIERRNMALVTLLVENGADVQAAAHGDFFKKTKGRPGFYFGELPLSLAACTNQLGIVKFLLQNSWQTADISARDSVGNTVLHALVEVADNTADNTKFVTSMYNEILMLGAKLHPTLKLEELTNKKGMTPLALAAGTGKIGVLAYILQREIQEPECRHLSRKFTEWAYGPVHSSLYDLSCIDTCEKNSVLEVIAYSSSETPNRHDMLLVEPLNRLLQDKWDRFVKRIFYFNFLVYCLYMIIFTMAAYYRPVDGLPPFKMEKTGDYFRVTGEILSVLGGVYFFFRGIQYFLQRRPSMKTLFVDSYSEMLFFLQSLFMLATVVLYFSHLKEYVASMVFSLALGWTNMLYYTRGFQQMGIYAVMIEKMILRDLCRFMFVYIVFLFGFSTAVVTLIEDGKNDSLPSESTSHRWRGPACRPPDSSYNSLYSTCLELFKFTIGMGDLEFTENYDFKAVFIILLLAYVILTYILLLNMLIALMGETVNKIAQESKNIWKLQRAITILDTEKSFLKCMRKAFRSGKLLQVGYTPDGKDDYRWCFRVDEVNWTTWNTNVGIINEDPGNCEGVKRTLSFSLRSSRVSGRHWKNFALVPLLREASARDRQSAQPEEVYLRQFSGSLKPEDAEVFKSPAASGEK
# method: Agonist activity at human recombinant TRPV1 expressed in HEK293 cells assessed as increase in intracellular calcium level relative to ionomycin
# Assay type: functional, cell-based
Exercise: for every item that follows, state its recorded Emax.
Numbers only, in %.

Some entries whose results are on file:
CCCCCCC(C)(C)c1ccc([C@@H]2C[C@H](O)CC[C@H]2CCCO)c(O)c1 = 83
CCCCCCCC/C=C\CCCCCCCC(=O)N[C@@H]1C[C@H]1O = 72.5
CCCCCCCC/C=C\CCCCCCCC(=O)N[C@@H]1C[C@@H]1O = 62.5

Consider the following items and state reported Emax for each.
1. CCCCC/C=C\C/C=C\C/C=C\C/C=C\CCCC(=O)N[C@H]1C[C@@H]1O
2. CCCCC/C=C\C/C=C\C/C=C\C/C=C\CCCC(=O)N[C@@H]1C[C@@H]1O
3. CCCCC/C=C\C/C=C\C/C=C\C/C=C\CCCC(=O)N[C@@H]1C[C@H]1O
4. CCCCC/C=C\C/C=C\C/C=C\C/C=C\CCCC(=O)N[C@H]1C[C@H]1O

[75.7, 76.5, 80.3, 65.8]

====

# target-desc: UniProt:P34972
# Sequence (P34972 whole entry): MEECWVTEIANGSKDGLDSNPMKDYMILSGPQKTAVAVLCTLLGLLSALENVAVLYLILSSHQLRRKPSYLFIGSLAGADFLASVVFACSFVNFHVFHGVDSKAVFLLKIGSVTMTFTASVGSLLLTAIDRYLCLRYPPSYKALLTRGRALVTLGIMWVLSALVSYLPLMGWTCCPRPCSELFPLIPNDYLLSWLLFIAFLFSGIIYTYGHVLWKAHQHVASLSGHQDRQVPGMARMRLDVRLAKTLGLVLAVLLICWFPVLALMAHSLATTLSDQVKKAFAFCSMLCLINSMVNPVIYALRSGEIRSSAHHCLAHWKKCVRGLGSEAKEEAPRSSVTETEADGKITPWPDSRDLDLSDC
# method: Displacement of [3H]CP-55940 from human recombinant CB2 receptor expressed in HEK293 cell membrane
# Format: cell membranes
pKi: −log10 of the molar value.
quantity: pKi

Some entries whose results are on file:
CCCCCCCCCCCCCCCC(=O)NCCO [PALMIDROL] = < 5.30
COc1cc(CNC(=O)CCCC/C=C/C(C)C)ccc1O [CAPSAICIN] = < 5.00
CCCCCCCCCCCCCCCC(=O)N[C@@H]1C[C@@H]1O (racemic) = < 5.00
CCCCCCCCCCCCCCCC(=O)N[C@@H]1C[C@H]1O (racemic) = < 5.00

Please turn your attention to the following entry.
Reported pKi for CCCCCCCC/C=C\CCCCCCCC(=O)NCCO [OLEOYLETHANOLAMIDE] was < 5.00
